System: Human orthopneumovirus
Assay Name: Antiviral activity against Respiratory syncytial virus type B infected in human HEp-2 cells assessed as inhibition of viral replication preincubated with cells followed by viral infection for 1 hr followed by virus washout and further incubated with compound for 6 days by ELISA method
Assay type: functional, organism-based
Run Parameters: read-out: IC50
Result Type: log10 IC50 (log10 of the value in µM)

{"Sample Smiles": "Cc1cc(=O)oc2cc(OCC3=CC[C@@H]4C[C@H]3C4(C)C)ccc12", "log10 IC50": 0.67}
{"Sample Smiles": "CC(C)=CCCC(C)=CCn1cc(COc2ccc3c(-c4ccccc4)cc(=O)oc3c2)nn1", "log10 IC50": 1.05}
{"Sample Smiles": "CC1(C)[C@H]2CC=C(Cn3cc(COc4ccc5c(-c6ccccc6)cc(=O)oc5c4)nn3)[C@@H]1C2", "log10 IC50": 0.20}
{"Sample Smiles": "CC(C)=CCCC(C)=CCn1cc(COc2ccc3c4c(c(=O)oc3c2)CCCC4)nn1", "log10 IC50": 0.08}
{"Sample Smiles": "Cc1cc(=O)oc2cc(OCC3=CC[C@H]4C[C@@H]3C4(C)C)ccc12", "log10 IC50": 2.38}

====

// values below are reported log10(IC50)
System: Human orthopneumovirus
Assay Name: Antiviral activity against Respiratory syncytial virus type B infected in human HEp-2 cells assessed as inhibition of viral replication preincubated with cells followed by viral infection for 1 hr followed by virus washout and further incubated with compound for 6 days by ELISA method
Format: functional, organism-based
Run Parameters: read-out: IC50
Result Type: log10(IC50) (log10 of the value in µM)

{"Molecule": "Cc1cc(=O)oc2cc(OCc3cn(CC4=CC[C@H]5C[C@@H]4C5(C)C)nn3)ccc12", "Measured": 0.85}
{"Molecule": "CC(C)c1ccc(Cn2cc(COc3ccc4c(-c5ccccc5)cc(=O)oc4c3)nn2)cc1", "Measured": 0.82}
{"Molecule": "CC1(C)[C@H]2CC=C(Cn3cc(COc4ccc5c6c(c(=O)oc5c4)CCC6)nn3)[C@@H]1C2", "Measured": 2.41}
{"Molecule": "Cc1cc(=O)oc2cc(OCc3cn(CCC(C)CCCC(C)C)nn3)ccc12 (stereo not given)", "Measured": 0.59}
{"Molecule": "CC(C)=CCC/C(C)=C/Cn1cc(COc2ccc3c(C)cc(=O)oc3c2)nn1", "Measured": 0.91}

====

System: HEp-2
Assay Name: Cytotoxicity against human HEp-2 cells assessed as cell growth inhibition measured after 24 hrs by MTT assay
Format: functional

{"Compound": "CC1(C)[C@@H]2CC=C(COc3ccc4c5c(c(=O)oc4c3)CCC5)[C@H]1C2", "CC50 [µM]": 416}
{"Compound": "CC1(C)[C@@H]2CC=C(COc3ccc4c5c(c(=O)oc4c3)CCCC5)[C@H]1C2", "CC50 [µM]": 380}
{"Compound": "CC1(C)[C@@H]2CC=C(Cn3cc(COc4ccc5c(-c6ccccc6)cc(=O)oc5c4)nn3)[C@H]1C2", "CC50 [µM]": 43.4}
{"Compound": "Cc1cc(=O)oc2cc(OCc3cn(CCC(C)CCCC(C)C)nn3)ccc12 (centres undefined)", "CC50 [µM]": 16.1}

====

Assay Name: Selectivity index, ratio of CC50 for human HEp-2 cells to IC50 for Respiratory syncytial virus type A infected in human HEp-2 cells
Type: cell-based
Run Parameters: read-out: Ratio CC50/IC50

{"Compound": "CC1(C)[C@H]2CC=C(Cn3cc(COc4ccc5c6c(c(=O)oc5c4)CCC6)nn3)[C@@H]1C2", "Result Comparator": "=", "selectivity ratio": 0.4}
{"Compound": "CC(C)CCCC(C)CCn1cc(COc2ccc3c4c(c(=O)oc3c2)CCCC4)nn1 (stereo not drawn)", "Result Comparator": "=", "selectivity ratio": 6.1}
{"Compound": "CC(C)=CCC/C(C)=C/CCOc1ccc2c3c(c(=O)oc2c1)CCC3", "Result Comparator": "<", "selectivity ratio": 1}

====

Test system: Human orthopneumovirus
Assay Name: Antiviral activity against Respiratory syncytial virus type B infected in human HEp-2 cells assessed as inhibition of viral replication preincubated with cells followed by viral infection for 1 hr followed by virus washout and further incubated with compound for 6 days by ELISA method
Type: functional, organism-based
Run Parameters: read-out: pIC50 (converted)
In this section we review reported IC50 values for a set of compounds.

{"Compound": "CC(C)=CCC/C(C)=C\\Cn1cc(COc2ccc3c(C)cc(=O)oc3c2)nn1", "IC50 (µM)": 1.1}
{"Compound": "CC(C)CCCC(C)CCn1cc(COc2ccc3c(-c4ccccc4)cc(=O)oc3c2)nn1 (centres undefined)", "IC50 (µM)": 0.229}
{"Compound": "CC(C)CCCC(C)CCn1cc(COc2ccc3c4c(c(=O)oc3c2)CCCC4)nn1 (centres undefined)", "IC50 (µM)": 4.47}
{"Compound": "CC(C)CCCC(C)CCn1cc(COc2ccc3c4c(c(=O)oc3c2)CCC4)nn1 (centres undefined)", "IC50 (µM)": 5.25}
{"Compound": "CC(C)=CCC/C(C)=C/Cn1cc(COc2ccc3c(C)cc(=O)oc3c2)nn1", "IC50 (µM)": 0.151}
{"Compound": "CC(C)=CCCC(C)=CCn1cc(COc2ccc3c(-c4ccccc4)cc(=O)oc3c2)nn1", "IC50 (µM)": 11.2}
{"Compound": "CC(C)=CCCC(C)=CCn1cc(COc2ccc3c4c(c(=O)oc3c2)CCCC4)nn1", "IC50 (µM)": 1.2}
{"Compound": "Cc1cc(=O)oc2cc(OCc3cn(CCC(C)CCCC(C)C)nn3)ccc12 (centres undefined)", "IC50 (µM)": 3.89}
{"Compound": "CC(C)=CCCC(C)=CCn1cc(COc2ccc3c4c(c(=O)oc3c2)CCC4)nn1", "IC50 (µM)": 6.46}

====

Entries annotated with measured selectivity ratio
Assay Name: Selectivity index, ratio of CC50 for human HEp-2 cells to IC50 for Respiratory syncytial virus type A infected in human HEp-2 cells
Type: cell-based
Run Parameters: read-out: Ratio CC50/IC50

{"Compound": "CC(C)=CCC/C(C)=C\\Cn1cc(COc2ccc3c(C)cc(=O)oc3c2)nn1", "selectivity ratio": "> 96"}
{"Compound": "Cc1cc(=O)oc2cc(OCC3=CC[C@@H]4C[C@H]3C4(C)C)ccc12", "selectivity ratio": 90}
{"Compound": "CC(C)c1ccc(Cn2cc(COc3ccc4c5c(c(=O)oc4c3)CCCC5)nn2)cc1", "selectivity ratio": 1.7}
{"Compound": "CC1(C)[C@@H]2CC=C(Cn3cc(COc4ccc5c(-c6ccccc6)cc(=O)oc5c4)nn3)[C@H]1C2", "selectivity ratio": 10}
{"Compound": "CC1(C)[C@H]2CC=C(COc3ccc4c5c(c(=O)oc4c3)CCC5)[C@@H]1C2", "selectivity ratio": "< 1"}
{"Compound": "CC(C)c1ccc(Cn2cc(COc3ccc4c(-c5ccccc5)cc(=O)oc4c3)nn2)cc1", "selectivity ratio": 17}
{"Compound": "CC(C)CCCC(C)CCn1cc(COc2ccc3c(-c4ccccc4)cc(=O)oc3c2)nn1 (centres undefined)", "selectivity ratio": 3.5}
{"Compound": "Cc1cc(=O)oc2cc(OCc3cn(CCC(C)CCCC(C)C)nn3)ccc12 (centres undefined)", "selectivity ratio": 3.8}
{"Compound": "CC(C)CCCC(C)CCn1cc(COc2ccc3c4c(c(=O)oc3c2)CCC4)nn1 (centres undefined)", "selectivity ratio": 160}

====

Reported IC50 values are given for each entry in this list.
Test system: Human orthopneumovirus
Assay Name: Antiviral activity against Respiratory syncytial virus type B infected in human HEp-2 cells assessed as inhibition of viral replication preincubated with cells followed by viral infection for 1 hr followed by virus washout and further incubated with compound for 6 days by ELISA method
Format: functional, organism-based
Run Parameters: read-out: IC50
Result Type: IC50 (µM)

{"Sample Smiles": "CC(C)=CCC/C(C)=C/CCOc1ccc2c3c(c(=O)oc2c1)CCCC3", "Measured": 0.6}
{"Sample Smiles": "Cc1cc(=O)oc2cc(OCc3cn(Cc4ccc(C(C)C)cc4)nn3)ccc12", "Measured": 3.2}
{"Sample Smiles": "CC(C)=CCC/C(C)=C/CCOc1ccc2c(C)cc(=O)oc2c1", "Measured": 52.4}
{"Sample Smiles": "CC1(C)[C@@H]2CC=C(Cn3cc(COc4ccc5c6c(c(=O)oc5c4)CCCC6)nn3)[C@H]1C2", "Measured": 3.5}

====

Assay Name: Selectivity index, ratio of CC50 for human HEp-2 cells to IC50 for Respiratory syncytial virus type B infected in human HEp-2 cells
Type: cell-based
Run Parameters: read-out: Ratio CC50/IC50
Result Type: selectivity ratio

{"Compound": "CC(C)=CCC/C(C)=C/CCOc1ccc2c3c(c(=O)oc2c1)CCC3", "Result Type": "selectivity ratio", "Measured": 1.8}
{"Compound": "CC(C)=CCC/C(C)=C/Cn1cc(COc2ccc3c(C)cc(=O)oc3c2)nn1", "Result Type": "selectivity ratio", "Measured": 1.8}
{"Compound": "CC1(C)[C@H]2CC=C(Cn3cc(COc4ccc5c6c(c(=O)oc5c4)CCCC6)nn3)[C@@H]1C2", "Result Type": "selectivity ratio", "Measured": 23.3}
{"Compound": "CC1(C)[C@H]2CC=C(COc3ccc4c5c(c(=O)oc4c3)CCCC5)[C@@H]1C2", "Result Type": "selectivity ratio", "Measured": 5.5}
{"Compound": "CC1(C)[C@H]2CC=C(Cn3cc(COc4ccc5c(-c6ccccc6)cc(=O)oc5c4)nn3)[C@@H]1C2", "Result Type": "selectivity ratio", "Measured": 8.5}
{"Compound": "CC(C)c1ccc(Cn2cc(COc3ccc4c5c(c(=O)oc4c3)CCCC5)nn2)cc1", "Result Type": "selectivity ratio", "Measured": 1.6}
{"Compound": "CC(C)=CCC/C(C)=C\\Cn1cc(COc2ccc3c(C)cc(=O)oc3c2)nn1", "Result Type": "selectivity ratio", "Measured": 13.4}
{"Compound": "CC(C)CCCC(C)CCn1cc(COc2ccc3c4c(c(=O)oc3c2)CCCC4)nn1 (configuration not stated)", "Result Type": "selectivity ratio", "Measured": 4.9}
{"Compound": "CC(C)c1ccc(Cn2cc(COc3ccc4c5c(c(=O)oc4c3)CCC5)nn2)cc1", "Result Type": "selectivity ratio", "Measured": 1.5}
{"Compound": "CC1(C)[C@H]2CC=C(COc3ccc4c5c(c(=O)oc4c3)CCC5)[C@@H]1C2", "Result Type": "selectivity ratio", "Measured": 0.9}
{"Compound": "CC(C)CCCC(C)CCn1cc(COc2ccc3c(-c4ccccc4)cc(=O)oc3c2)nn1 (configuration not stated)", "Result Type": "selectivity ratio", "Measured": 2.8}
{"Compound": "Cc1cc(=O)oc2cc(OCC3=CC[C@H]4C[C@@H]3C4(C)C)ccc12", "Result Type": "selectivity ratio", "Measured": 3.3}
